B1: UFD1L (parent)
chain: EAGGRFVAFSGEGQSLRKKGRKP

Variants of: B1
Test: protein stability index of a GFP-peptide fusion (GPS, HEK-293T) (PSI 1-6); higher = more stable;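 note: lentivirally expressed fusions sorted by FACS into six bins by GFP to DsRed ratio, PSI derived from sequencing read proportions per bin multiplied by bin number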
Conditions: c terminus: native
Each record here notes measured protein stability index.
REPORTED ENDPOINT: protein stability index

>  <RESIDUE CODES>
EAGGRFVAFSGEGQSLRKKSRKP [G20S]

>  <REPORTED ENDPOINT>
protein stability index

>  <MEASURED RESULT>
2.12

$$$$
>  <RESIDUE CODES>
EAGGRFVAFSGEGQSLRKAGRKP [K19A]

>  <REPORTED ENDPOINT>
protein stability index

>  <MEASURED RESULT>
3.83

$$$$
>  <RESIDUE CODES>
EAGGRFVAFSGEGQSRRKKGRKP [L16R]

>  <REPORTED ENDPOINT>
protein stability index

>  <MEASURED RESULT>
2.64

$$$$
>  <RESIDUE CODES>
EAGGRFVAFSGEGQSLRKKGRTP [K22T]

>  <REPORTED ENDPOINT>
protein stability index

>  <MEASURED RESULT>
1.45

$$$$
>  <RESIDUE CODES>
EAGGLFVAFSGEGQSLRKKGRKP [R5L]

>  <REPORTED ENDPOINT>
protein stability index

>  <MEASURED RESULT>
2.46

$$$$
>  <RESIDUE CODES>
EAGGRFVAFSGEGQSLRKKGRDP [K22D]

>  <REPORTED ENDPOINT>
protein stability index

>  <MEASURED RESULT>
2

$$$$
>  <RESIDUE CODES>
EAGGRKVAFSGEGQSLRKKGRKP [F6K]

>  <REPORTED ENDPOINT>
protein stability index

>  <MEASURED RESULT>
2.25

$$$$
>  <RESIDUE CODES>
EAGGRFVAFDGEGQSLRKKGRKP [S10D]

>  <REPORTED ENDPOINT>
protein stability index

>  <MEASURED RESULT>
2.36

$$$$
>  <RESIDUE CODES>
EAGGRFTAFSGEGQSLRKKGRKP [V7T]

>  <REPORTED ENDPOINT>
protein stability index

>  <MEASURED RESULT>
1.18

$$$$
>  <RESIDUE CODES>
EAGGRFLAFSGEGQSLRKKGRKP [V7L]

>  <REPORTED ENDPOINT>
protein stability index

>  <MEASURED RESULT>
1.5

$$$$
>  <RESIDUE CODES>
EAGGRFVAFSGEGQSLRDKGRKP [K18D]

>  <REPORTED ENDPOINT>
protein stability index

>  <MEASURED RESULT>
2.01

$$$$
>  <RESIDUE CODES>
EAGGRFVAFSGEGQSLRKTGRKP [K19T]

>  <REPORTED ENDPOINT>
protein stability index

>  <MEASURED RESULT>
3.08

$$$$
>  <RESIDUE CODES>
EAGGRFVAFSGEGQSERKKGRKP [L16E]

>  <REPORTED ENDPOINT>
protein stability index

>  <MEASURED RESULT>
2.53

$$$$
>  <RESIDUE CODES>
LAGGRFVAFSGEGQSLRKKGRKP [E1L]

>  <REPORTED ENDPOINT>
protein stability index

>  <MEASURED RESULT>
1.92

$$$$
>  <RESIDUE CODES>
EAGGRFVAFSGELQSLRKKGRKP [G13L]

>  <REPORTED ENDPOINT>
protein stability index

>  <MEASURED RESULT>
2.52

$$$$
>  <RESIDUE CODES>
EAGGRFVAQSGEGQSLRKKGRKP [F9Q]

>  <REPORTED ENDPOINT>
protein stability index

>  <MEASURED RESULT>
2.25

$$$$
>  <RESIDUE CODES>
EAGKRFVAFSGEGQSLRKKGRKP [G4K]

>  <REPORTED ENDPOINT>
protein stability index

>  <MEASURED RESULT>
2.58

$$$$
>  <RESIDUE CODES>
EAGGRFAAFSGEGQSLRKKGRKP [V7A]

>  <REPORTED ENDPOINT>
protein stability index

>  <MEASURED RESULT>
2.69

$$$$
>  <RESIDUE CODES>
EAGGRYVAFSGEGQSLRKKGRKP [F6Y]

>  <REPORTED ENDPOINT>
protein stability index

>  <MEASURED RESULT>
2.38

$$$$
>  <RESIDUE CODES>
EAGSRFVAFSGEGQSLRKKGRKP [G4S]

>  <REPORTED ENDPOINT>
protein stability index

>  <MEASURED RESULT>
3.12

$$$$
>  <RESIDUE CODES>
EACGRFVAFSGEGQSLRKKGRKP [G3C]

>  <REPORTED ENDPOINT>
protein stability index

>  <MEASURED RESULT>
1.6

$$$$
>  <RESIDUE CODES>
EAGGRFVAFSGEGCSLRKKGRKP [Q14C]

>  <REPORTED ENDPOINT>
protein stability index

>  <MEASURED RESULT>
3.07

$$$$
